Biological target: Human 5-lipoxygenase (Homo sapiens, UniProt P09917)
Construct: purchased Cayman 60402; host or cells: insect cells
Sequence (P09917 whole entry): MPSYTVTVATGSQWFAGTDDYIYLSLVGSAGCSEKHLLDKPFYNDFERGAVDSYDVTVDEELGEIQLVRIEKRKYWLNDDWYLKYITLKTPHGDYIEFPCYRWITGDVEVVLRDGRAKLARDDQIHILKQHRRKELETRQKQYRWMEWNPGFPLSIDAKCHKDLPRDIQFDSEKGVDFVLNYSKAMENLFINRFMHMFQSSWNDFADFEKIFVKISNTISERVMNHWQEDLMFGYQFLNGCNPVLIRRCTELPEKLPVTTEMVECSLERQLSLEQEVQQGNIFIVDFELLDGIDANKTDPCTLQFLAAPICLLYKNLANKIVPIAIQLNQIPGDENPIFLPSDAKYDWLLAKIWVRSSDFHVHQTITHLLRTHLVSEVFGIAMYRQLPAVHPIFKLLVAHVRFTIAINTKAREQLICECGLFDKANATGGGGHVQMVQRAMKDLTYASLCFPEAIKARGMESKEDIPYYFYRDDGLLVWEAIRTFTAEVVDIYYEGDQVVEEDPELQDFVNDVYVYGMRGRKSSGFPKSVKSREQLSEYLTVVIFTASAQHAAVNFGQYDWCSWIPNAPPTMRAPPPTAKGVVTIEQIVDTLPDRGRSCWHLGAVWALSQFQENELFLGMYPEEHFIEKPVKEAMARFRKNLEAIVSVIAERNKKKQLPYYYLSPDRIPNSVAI
Assay: Activity of compounds against 5-LO enzyme (LTB4 measurement and/or fluorescence method)
Type: biochemical
Details: 5-LO, single concentration of 10 uM in duplicate
Measurement kind: inhibition at 10 µM

// solved cases for inhibition at 10 µM follow
[
  {
    "Chemical string": "CCc1nc2ccc(F)cn2c1C(=O)NCc1ccc(Oc2ccc(OC(F)(F)F)cc2)cc1",
    "Result": "> 69%"
  },
  {
    "Chemical string": "CCc1nc2ccc(Cl)cn2c1C(=O)NCc1ccc(N2CCC(COC(C)C)CC2)cc1",
    "Result": "< 40%"
  },
  {
    "Chemical string": "CCc1nc2cc(Br)ccn2c1C(=O)NCc1ccc(OC(F)(F)F)cc1",
    "Result": "40 to 69%"
  },
  {
    "Chemical string": "CCc1nc2cc(Cl)ccn2c1C(=O)NCc1ccc2ccccc2c1",
    "Result": "40 to 69%"
  },
  {
    "Chemical string": "CCc1nc2ccccn2c1C(=O)NCc1ccc(C2CCOCC2)cc1",
    "Result": "< 40%"
  }
]

# per-item lookup of inhibition at 10 µM; items listed below
1. CCc1nc2ccc(Cl)cn2c1C(=O)N1CCC(OCc2ccc(F)cc2)CC1
2. CCc1nc2ccc(Cl)cn2c1CN1CCC(OCc2ccc(OC(F)(F)F)cc2)CC1

Reply:
< 40%
> 69%

Task item: Fill in the blank: the reported inhibition at 10 µM of CCc1nc2ccc(Cl)cn2c1C(=O)NCc1ccc(N2CCC(C(F)(F)F)CC2)cc1 is ____.
Reply: 40 to 69%
